This listing pairs binders with measured Anti-CD28 Fab (SEQ ID NOs: 202, 203) signal.
molecular target: T1, Anti-CD28 Fab (SEQ ID NOs: 202, 203); experiment: phage binding ELISA, Fab on plate;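 note: clonal phage supernatant ELISA, wells preincubated with CD28 antigen or blocking buffer only, then bound phage detected using HRP-linked anti-M13 antibody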
T1 construct: biotinylated and captured on neutravidin coated plates in the phage ELISA
T1 sequence (VH, as listed by the source, chain 1 of 2): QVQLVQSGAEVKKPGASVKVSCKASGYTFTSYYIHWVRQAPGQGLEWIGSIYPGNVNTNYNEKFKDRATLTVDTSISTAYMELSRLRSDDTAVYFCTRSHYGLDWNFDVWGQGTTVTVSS
T1 sequence (VL, as listed by the source, chain 2 of 2): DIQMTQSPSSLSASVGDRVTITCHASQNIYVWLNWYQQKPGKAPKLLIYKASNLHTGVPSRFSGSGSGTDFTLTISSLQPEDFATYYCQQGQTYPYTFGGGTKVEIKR
assay.readout: Anti-CD28 Fab (SEQ ID NOs: 202, 203) signal

- binder: "PCSAGATYAWLYCV [Phage-1011]"
  number: 1.81
- binder: "LCSAGAMYQWPTCL [Phage-1061]"
  number: 1.63
- binder: "SCAAGLSYPWPDCL [Phage-1055]"
  number: 1.65
- binder: "WCAAGAMYPWPLCL [Phage-1049]"
  number: 1.67
- binder: "WCTAGFSYKLSICL [Phage-1060]"
  number: 1.63
- binder: "QCAAGASYPWPVCL [Phage-1008]"
  number: 1.82
- binder: "TCSAGATYSWPQCL [Phage-1003]"
  number: 1.84
- binder: "TCSAGAMYPWPWCV [Phage-1031]"
  number: 1.75
- binder: "RCAAGVMYDWPVCL [Phage-1043]"
  number: 1.7
- binder: "TCSAGAAYAWPYCL [Phage-1072]"
  number: 1.59
- binder: "TCAAGAYWTWPACF [Phage-990]"
  number: 1.93
- binder: "SCSAGAMYPWPMCL [Phage-1093]"
  number: 1.53
- binder: "DCWGDAPYPWRVCL [Phage-1059]"
  number: 1.64
- binder: "TCAAGATWPWPSCL [Phage-1065]"
  number: 1.61
- binder: "LCEEFFHYSWPVCL [Phage-1034]"
  number: 1.74
- binder: "TCAAGASFPWPWCL [Phage-1029]"
  number: 1.75
- binder: "LCAAGAAYPWPMCL [Phage-1073]"
  number: 1.59
- binder: "TCSAGAYYAWPVCL [Phage-1004]"
  number: 1.84
- binder: "TCAAGAHYAWPECF [Phage-1040]"
  number: 1.72
- binder: "MCSAGATYPWPYCL [Phage-1057]"
  number: 1.64
- binder: "MCSAGATYPWPMCL [Phage-1037]"
  number: 1.73
- binder: "TCSAGAHYEWPYCL [Phage-1007]"
  number: 1.82
- binder: "SCSAGASLQLSICL [Phage-992]"
  number: 1.92
- binder: "TCTAVFPYEWPRCL [Phage-1078]"
  number: 1.57
- binder: "SCSAVFSYAWPTCL [Phage-1064]"
  number: 1.61
- binder: "SCAAGATYEWPRCL [Phage-1068]"
  number: 1.6
- binder: "TCEAVFIYSWPFCL [Phage-1096]"
  number: 1.52
- binder: "TCTAGFSYNWPMCF [Phage-1001]"
  number: 1.85
- binder: "LCKPGVPYQWPTCF [Phage-1009]"
  number: 1.82
- binder: "TCSAGATWAWPSCF [Phage-993]"
  number: 1.92
- binder: "TCAAGAAYTWPACF [Phage-982]"
  number: 1.96
